Target: 3TD of SETDB1, F332A mutant, as used in ITC (UniProt Q15047 190-410, F332A)
Experiment: ITC
pKd: −log10 of the molar value. Where no end group is shown, it is not given here.
parameterMeasured: pKd

[[record]]
binder = "KQTARK(Me2)STGGK(Ac)APRKQ [H3K9me2/K14ac peptide in solution (ITC; crystal with W358A), limits not stated]"
parametermeasured = "pKd"
recordedmeasurement = "~3.46"

